assay: Thermogravimetric analysis (TGA), thermal stability; settings: TGA under nitrogen, 10 °C/min, 5% weight loss onset
READOUT: Thermal Stability T5%onset
Provide the measurement as a number trailed by its unit.

| COMPOUND | READOUT | ENDPOINT_RESULT |
| --- | --- | --- |
| C[N+](C)(C)CCCl.O=C([O-])c1ccc(Cl)cc1O [[CC][4-ClSal]] | Thermal Stability T5%onset | 205.3 °C |

[in] Which measured Thermal Stability T5%onset value corresponds to C[N+](C)(C)CCCl.O=C([O-])c1ccccc1O [[CC][Sal], chlormequat salicylate] ?
[out] 186.1 °C

[in] Which measured Thermal Stability T5%onset value corresponds to C[N+](C)(C)CCCl.O=C([O-])c1cc(Cl)ccc1O [[CC][5-ClSal]] ?
[out] 217.1 °C

[in] Which measured Thermal Stability T5%onset value corresponds to C[N+](C)(C)CCCl.O=C([O-])c1cc(Cl)cc(Cl)c1O [[CC][3,5-ClSal]] ?
[out] 208.3 °C

[in] Which measured Thermal Stability T5%onset value corresponds to C[N+](C)(C)CCCl [[CC][Cl], Chlormequat chloride, reference compound] ?
[out] 255.0 °C

[in] Which measured Thermal Stability T5%onset value corresponds to C[N+](C)(C)CCCl.O=C([O-])c1ccncc1 [[CC][IsoNic]] ?
[out] 164.3 °C

[in] Which measured Thermal Stability T5%onset value corresponds to C[N+](C)(C)CCCl.O=C([O-])c1cc(Cl)nc(Cl)c1 [[CC][Ina]] ?
[out] 177.2 °C

[in] Which measured Thermal Stability T5%onset value corresponds to C[N+](C)(C)CCCl.O=C([O-])c1cccnc1 [[CC][Nic]] ?
[out] 166.9 °C

[in] Which measured Thermal Stability T5%onset value corresponds to C[N+](C)(C)CCCl.O=C([O-])c1cccc(Cl)c1O [[CC][3-ClSal]] ?
[out] 196.2 °C

----------
Let's look at some compounds and their measured SAR Induction (percentage of necrotic area on leaves).
test system: Tobamovirus tabaci (tobacco mosaic virus, TMV) on Nicotiana tabacum cv. Xanthi; assay: SAR induction assay: necrotic area after TMV inoculation of sprayed tobacco; format: in vivo; details: 250 mg/L spray, TMV inoculation after 7 days, read 7 days later; UTC 34.54

In the examples that follow, each entry is paired with its recorded SAR Induction (percentage of necrotic area on leaves).
| COMPOUND | ENDPOINT_RESULT |
| --- | --- |
| O=C(O)c1cc(Cl)ccc1O | 3.28 ab AB % |
| O=C(O)c1ccncc1 | 25.58 g A % |
| C[N+](C)(C)CCCl.O=C([O-])c1cccc(Cl)c1O [[CC][3-ClSal]] | 1.39 a A % |
| C[N+](C)(C)CCCl.O=C([O-])c1ccccc1O [[CC][Sal], chlormequat salicylate] | 12.39 ef A % |
| O=C(O)c1ccccc1O | 25.06 g C % |

// next item, SAR Induction (percentage of necrotic area on leaves) requested
[in] Which measured SAR Induction (percentage of necrotic area on leaves) value corresponds to O=C(O)c1cc(Cl)nc(Cl)c1 ?
[out] 14.90 f AB %

----------
experiment: Solubility tests in representative solvents (Vogel protocol); details: 25 °C, organic solvent or mixture, thermodynamic from solid, Solubility in Hexane, Snyder polarity index 0.0
READOUT: solubility

| MOLECULE | solubility |
| --- | --- |
| C[N+](C)(C)CCCl [[CC][Cl], Chlormequat chloride, reference compound] | < 33.3 mg/mL |

[in] Which measured solubility value corresponds to C[N+](C)(C)CCCl.O=C([O-])c1ccccc1O [[CC][Sal], chlormequat salicylate] ?
[out] < 33.3 mg/mL

----------
tested on: radish (Raphanus sativus) sprouts; experiment: Phytotoxicity test on radish sprouts; assay type: in vivo; settings: 125 mg/L, compared with untreated control
Cut-off 30% on Reduction in Sprout Mass, inclusive. At or above means YES; below means NO.

Example entries and their recorded answers appear below.
| COMPOUND | TESTED_TARGET | CLASSIFICATION |
| --- | --- | --- |
| O=C(O)c1ccncc1 | radish (Raphanus sativus) sprouts | NO |
| C[N+](C)(C)CCCl.O=C([O-])c1cc(Cl)ccc1O [[CC][5-ClSal]] | radish (Raphanus sativus) sprouts | NO |
| C[N+](C)(C)CCCl.O=C([O-])c1cc(Cl)nc(Cl)c1 [[CC][Ina]] | radish (Raphanus sativus) sprouts | NO |
| O=C(O)c1cc(Cl)nc(Cl)c1 | radish (Raphanus sativus) sprouts | YES |

[in] API: above_or_equal(metric=Reduction in Sprout Mass, cutoff=30%) for item O=C(O)c1cc(Cl)ccc1O
[out] YES

[in] API: above_or_equal(metric=Reduction in Sprout Mass, cutoff=30%) for item C[N+](C)(C)CCCl [[CC][Cl], Chlormequat chloride, reference compound]
[out] NO

[in] API: above_or_equal(metric=Reduction in Sprout Mass, cutoff=30%) for item O=C(O)c1cc(Cl)cc(Cl)c1O
[out] YES

[in] API: above_or_equal(metric=Reduction in Sprout Mass, cutoff=30%) for item O=C(O)c1cccc(Cl)c1O
[out] YES

[in] API: above_or_equal(metric=Reduction in Sprout Mass, cutoff=30%) for item O=C(O)c1cccnc1
[out] NO

----------
Assay: Solubility tests in representative solvents (Vogel protocol)
Settings: 25 °C, water, thermodynamic from solid, Solubility (water)
Method: The solubilities of the prepared ILs in ten representative solvents were determined according to the protocols from Vogel’s Textbook of Practical Organic Chemistry. The solvents chosen for the study were arranged in order of descending value of their Snyder polarity index: water—9.0, methanol—6.6, acetone—5.1, isopropanol—4.3, toluene—2.3, and hexane—0.0.
READOUT: solubility

[in] Which measured solubility value corresponds to C[N+](C)(C)CCCl.O=C([O-])c1ccccc1O [[CC][Sal], chlormequat salicylate] ?
[out] > 100 mg/mL

----------
assay: Solubility tests in representative solvents (Vogel protocol); details: 25 °C, organic solvent or mixture, thermodynamic from solid, Solubility in Toluene, Snyder polarity index 2.3
READOUT: solubility

| COMPOUND | ENDPOINT_RESULT |
| --- | --- |
| C[N+](C)(C)CCCl [[CC][Cl], Chlormequat chloride, reference compound] | < 33.3 mg/mL |

[in] Which measured solubility value corresponds to C[N+](C)(C)CCCl.O=C([O-])c1ccccc1O [[CC][Sal], chlormequat salicylate] ?
[out] < 33.3 mg/mL

----------
Tested on: radish (Raphanus sativus) sprouts
Test: Phytotoxicity test on radish sprouts
Type: in vivo
Settings: 250 mg/L, radish, 5 days; UTC 3.09 g
Procedure: Twenty five seeds of radish (Raphanus sativus) were placed on a filter tissue in a Petri dish. […] Then, sprouts were weighted. All variants of treatment were tested together, with 3 replications (plates) in each of 2 cycles performed. Results were subjected to statistical analysis as described in Section 4.8. […]
Let's look at some compounds and their measured Mass of 25 Sprouts.

In the examples that follow, each entry is paired with its recorded Mass of 25 Sprouts.
| COMPOUND | Mass of 25 Sprouts |
| --- | --- |
| C[N+](C)(C)CCCl.O=C([O-])c1ccncc1 [[CC][IsoNic]] | 1.99 efg AB |
| O=C(O)c1cccc(Cl)c1O | 0.85 a A g |

[in] Param readout= Mass of 25 Sprouts; system= radish (Raphanus sativus) sprouts; entry= C[N+](C)(C)CCCl.O=C([O-])c1cc(Cl)nc(Cl)c1 [[CC][Ina]] ; returns value.
[out] 2.22 gh C

[in] Param readout= Mass of 25 Sprouts; system= radish (Raphanus sativus) sprouts; entry= C[N+](C)(C)CCCl.O=C([O-])c1cc(Cl)cc(Cl)c1O [[CC][3,5-ClSal]] ; returns value.
[out] 1.94 ef B g

[in] Param readout= Mass of 25 Sprouts; system= radish (Raphanus sativus) sprouts; entry= C[N+](C)(C)CCCl.O=C([O-])c1ccccc1O [[CC][Sal], chlormequat salicylate] ; returns value.
[out] 2.26 hi B g

[in] Param readout= Mass of 25 Sprouts; system= radish (Raphanus sativus) sprouts; entry= C[N+](C)(C)CCCl.O=C([O-])c1ccc(Cl)cc1O [[CC][4-ClSal]] ; returns value.
[out] 2.48 ij C g

[in] Param readout= Mass of 25 Sprouts; system= radish (Raphanus sativus) sprouts; entry= O=C(O)c1cc(Cl)nc(Cl)c1 ; returns value.
[out] 1.41 d A g

[in] Param readout= Mass of 25 Sprouts; system= radish (Raphanus sativus) sprouts; entry= O=C(O)c1cc(Cl)cc(Cl)c1O ; returns value.
[out] 1.25 cd A g

[in] Param readout= Mass of 25 Sprouts; system= radish (Raphanus sativus) sprouts; entry= O=C(O)c1ccncc1 ; returns value.
[out] 1.77 e A g

[in] Param readout= Mass of 25 Sprouts; system= radish (Raphanus sativus) sprouts; entry= C[N+](C)(C)CCCl.O=C([O-])c1cc(Cl)ccc1O [[CC][5-ClSal]] ; returns value.
[out] 2.16 fgh C
